test system: UACC-257 melanoma; experiment: NCI tumour cell line growth inhibition, 48 h
# reported GI50; entries follow
RESULT TYPE: GI50

{"COMPOUND": "Cc1cc(O)c(C2=NN(c3ccc(S(N)(=O)=O)cc3)C(c3ccccc3Cl)C2)cc1Cl (stereo not given)", "RESULT TYPE": "GI50", "VAL": "11.8 µM"}
{"COMPOUND": "O=C1C(N2CC2)=C(N2CC2)C(=O)C(N2CC2)=C1N1CC1", "RESULT TYPE": "GI50", "VAL": "0.109 µM"}
{"COMPOUND": "COc1cc2c(cc1O)CC[C@@H]1[C@@H]2CC[C@]2(C)[C@@H](OCCN(C)C)CC[C@@H]12", "RESULT TYPE": "GI50", "VAL": "0.138 µM"}
{"COMPOUND": "O=C(Cn1c(=O)c(-c2ccccc2)nc2ccccc21)Nc1ccc(F)cc1", "RESULT TYPE": "GI50", "VAL": "> 100 µM"}
{"COMPOUND": "O=C(Nc1cccc(-n2cc(-c3ccncc3)c(-c3ccc(Cl)c(O)c3)n2)c1)c1ccc(N2CCOCC2)c(C(F)(F)F)c1", "RESULT TYPE": "GI50", "VAL": "6.3 µM"}

----------
tested on: IGROV1 ovarian; test: NCI tumour cell line growth inhibition, 48 h; in the data active means GI50 below about 0.43 µM; inactive means the rest
Labels: Y (active), N (inactive)

{"COMPOUND": "COC1=CC(c2ccc[nH]2)=N/C1=C\\c1[nH]c(C)c(C(=O)CCCCC(=O)NC(C)(C)C)c1C", "CLASS": "N"}
{"COMPOUND": "O=c1cc(-c2ccccc2F)[nH]c2ccc(N3CCCC3)cc12", "CLASS": "Y"}
{"COMPOUND": "C#CC1(O)C(COP(=O)(O)OC(COCCCCCCCCCCCCCCCCCC)COP(=O)(O)OCC2OC(n3cc(F)c(=O)[nH]c3=O)CC2O)OC(n2ccc(N)nc2=O)C1O (stereo not drawn)", "CLASS": "Y"}
{"COMPOUND": "COc1cccc(C2=C(c3c(C)n(C)c4ccccc34)C(=O)NC2=O)c1", "CLASS": "N"}
{"COMPOUND": "COc1cccc(-c2nn(-c3ccccc3)cc2-c2ccnc(NCCCNC(=O)Nc3ccc(Cl)c(Cl)c3)c2)c1", "CLASS": "N"}
{"COMPOUND": "Cc1cc(NCCN(C(C)C)C(C)C)nc(/N=C(\\N)Nc2ccc(Cl)c(C(F)(F)F)c2)n1", "CLASS": "N"}
{"COMPOUND": "COc1ccc(/C=C/C(=O)c2ccc(O)c(CN3CCN(c4cc5c(cc4F)c(=O)c(C(=O)O)cn5C4CC4)CC3)c2)cc1", "CLASS": "N"}
{"COMPOUND": "Cc1cc(O)c(C2=NN(c3ccc(S(N)(=O)=O)cc3)C(c3ccccc3Cl)C2)cc1Cl (stereo not drawn)", "CLASS": "N"}

----------
tested on: KM12 colon; assay: NCI tumour cell line growth inhibition, 48 h

{"SMILES CODE": "O=C(Nc1cccc(-n2cc(-c3ccncc3)c(-c3cc(O)cc(Cl)c3)n2)c1)Nc1ccc(Cl)c(C(F)(F)F)c1", "GI50": "2.59 µM"}
{"SMILES CODE": "COC1=CC(c2ccc[nH]2)=N/C1=C\\c1[nH]c(C)c(C(=O)CCCCC(=O)NC(C)(C)C)c1C", "GI50": "1.16 µM"}
{"SMILES CODE": "N#CCCN(CCCN(CCCN(C(=O)Nc1ccccc1)c1ccccc1)C(=O)Nc1ccccc1)C(=O)Nc1ccccc1", "GI50": "18.7 µM"}
{"SMILES CODE": "CCOC(=O)c1c2c(n(Cc3ccc(Cl)cc3Cl)c1C)-c1nc[nH]c1C(=O)C2=O", "GI50": "5.87 µM"}
